Target: T1, hIL-3 receptor (human, UniProt P26951)
T1 sequence: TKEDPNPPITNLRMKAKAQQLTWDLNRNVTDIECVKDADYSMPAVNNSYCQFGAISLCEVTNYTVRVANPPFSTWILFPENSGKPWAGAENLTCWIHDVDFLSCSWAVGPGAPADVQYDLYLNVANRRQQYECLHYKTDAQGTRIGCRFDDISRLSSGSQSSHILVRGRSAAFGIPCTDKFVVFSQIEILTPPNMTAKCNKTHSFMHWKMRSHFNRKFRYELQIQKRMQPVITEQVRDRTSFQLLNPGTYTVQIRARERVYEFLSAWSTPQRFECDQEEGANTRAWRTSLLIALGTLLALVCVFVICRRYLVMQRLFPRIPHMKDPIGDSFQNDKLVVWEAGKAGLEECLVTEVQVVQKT
Test: cell-based or functional assay
assayMetric: Relative Biological Activity (AML 193 proliferation)

Prompt: Note down Relative Biological Activity (AML 193 proliferation) recorded for pMON13389 polypeptide (ligand) MANCSIMIDEIIHHLKRPPAPLLDPNNLNDEDMDILMERNLRLPNLESFVRAVKNLENASGIEAILRNLQPCLPSATAAPSRHPIIIKAGDWQEFREKLTFYLVTLEQAQEQQ
Response: 10 EC50 (1-133)hIL-3 / EC50 mutant

Prompt: Note down Relative Biological Activity (AML 193 proliferation) recorded for pMON13400 polypeptide (ligand) MANCSIMPDEAIHHLKIPPNPSLDSANLNSEDVSILMERNLRTPNLLAFVRAVKHLENASGIEAILRNLQPCLPSATAAPSRHPIIIKAGDWQEFREKLTFYLVTLEQAQEQQ
Response: 0.09 EC50 (1-133)hIL-3 / EC50 mutant
